Assay: Lipophilicity, logD of compound at pH 7.5 by reversed-phase HPLC analysis
Assay type: physicochemical
Details: buffer
recorded metric: chromatographic logD

CCOc1ccccc1-c1ccc(-c2nc3cnccc3c(C[C@H](C)C(N)=O)c2C#N)cc1; 3
CC[C@@H](Nc1c(C#N)c(-c2ccc(-c3cnccc3C)cc2)nc2cnccc12)C(N)=O; 2
CCOc1ccccc1-c1ccc(-c2nc3cnccc3c(N[C@H](CC)C(=O)O)c2C#N)cc1; 2.1
CC[C@@H](Nc1c(C#N)c(-c2ccc(-c3ccccc3COC)cc2)nc2cnccc12)C(N)=O; 2.6
